# System: 0.4 mm slices of rat hippocampus
# Assay name: tissue or blood
# Format: cell-based
# Setup conditions: Rattus norvegicus; 30 μM; iodoacetate 400 μM insult; slice ATP; read-out: % protection (v 1 μM TTX) (mean ± sem) (no. of expt's)
Endpoint: Emax at 30 µM (%)
Unit % implied. Number only.

Which Emax at 30 µM is reported for this compound? CN1CCN(c2ncc(-c3cc(Cl)cc(Cl)c3Cl)c(N)n2)CC1 [Sipatrigine, reference compound]
58

Which Emax at 30 µM is reported for this compound? Nc1nnc(C2(c3ccc(Cl)cc3)CCC2)c(N)n1
-10

Which Emax at 30 µM is reported for this compound? Nc1nnc(-c2cc(OCC(F)(F)F)ccc2OCC(F)(F)F)c(N)n1
-11

Which Emax at 30 µM is reported for this compound? N=c1nc(N)c(-c2cccc(Cl)c2Cl)nn1CC(F)(F)F
3

Which Emax at 30 µM is reported for this compound? Nc1nnc(C(c2ccccc2)C2CCCC2)c(N)n1 (centres unmarked)
56

====

# Target: hERG (Homo sapiens, UniProt Q12809)
# Sequence (Q12809 whole entry): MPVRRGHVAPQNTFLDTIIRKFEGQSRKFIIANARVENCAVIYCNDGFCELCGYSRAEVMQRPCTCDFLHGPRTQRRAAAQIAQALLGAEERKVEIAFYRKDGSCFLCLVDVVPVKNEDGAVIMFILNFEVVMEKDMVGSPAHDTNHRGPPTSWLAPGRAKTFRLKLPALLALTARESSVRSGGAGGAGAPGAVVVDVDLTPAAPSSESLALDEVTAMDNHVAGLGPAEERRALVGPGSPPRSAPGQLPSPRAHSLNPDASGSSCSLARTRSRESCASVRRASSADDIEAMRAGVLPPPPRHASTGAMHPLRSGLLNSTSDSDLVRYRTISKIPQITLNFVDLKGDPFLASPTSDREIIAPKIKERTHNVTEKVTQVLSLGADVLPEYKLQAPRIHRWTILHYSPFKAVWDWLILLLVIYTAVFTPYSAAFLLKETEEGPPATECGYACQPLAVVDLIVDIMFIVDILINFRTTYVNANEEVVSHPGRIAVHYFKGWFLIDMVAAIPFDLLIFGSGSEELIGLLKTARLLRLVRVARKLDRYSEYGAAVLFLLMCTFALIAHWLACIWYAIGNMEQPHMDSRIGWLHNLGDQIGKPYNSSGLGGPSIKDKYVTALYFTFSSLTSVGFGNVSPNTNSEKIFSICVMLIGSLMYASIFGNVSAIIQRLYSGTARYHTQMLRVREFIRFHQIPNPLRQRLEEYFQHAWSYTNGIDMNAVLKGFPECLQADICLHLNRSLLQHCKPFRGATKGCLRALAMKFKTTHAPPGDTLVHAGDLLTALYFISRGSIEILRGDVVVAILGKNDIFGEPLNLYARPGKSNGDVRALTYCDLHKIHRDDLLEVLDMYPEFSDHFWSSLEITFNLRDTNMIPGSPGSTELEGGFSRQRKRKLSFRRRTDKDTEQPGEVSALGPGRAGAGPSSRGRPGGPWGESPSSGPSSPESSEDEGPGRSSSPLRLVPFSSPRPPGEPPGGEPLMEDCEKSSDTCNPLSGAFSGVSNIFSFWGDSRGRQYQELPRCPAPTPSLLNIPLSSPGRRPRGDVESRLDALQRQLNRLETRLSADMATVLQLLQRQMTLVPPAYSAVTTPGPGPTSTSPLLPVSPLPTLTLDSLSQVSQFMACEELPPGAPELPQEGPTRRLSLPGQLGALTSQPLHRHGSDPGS
# Assay name: hERG: inhibition of binding of [3H]astemizole to HEK-293 cells expressing human recombinant hERG
# Setup conditions: human, probe [3H]astemizole
Classify as follows. Reported inhibition at 10 µM greater than or equal to 10%: Fulfilled. Reported inhibition at 10 µM below: Not fulfilled.

Observe how each entry below is paired with its result.
Answer whether inhibition at 10 µM of Nc1nnc(-c2cc(C(F)(F)F)cc(C(F)(F)F)c2)c(N)n1 [CEN-92] is greater than or equal to 10%.
Not fulfilled

Answer whether inhibition at 10 µM of Cn1nc(-c2ccccc2Oc2ccccc2)c(N)nc1=N [CEN-105] is greater than or equal to 10%.
Fulfilled

Others:
Answer whether inhibition at 10 µM of CCc1nc(N)nc(N)c1-c1ccc(Cl)cc1 [CEN-48, reference compound] is greater than or equal to 10%.
Fulfilled

Answer whether inhibition at 10 µM of N=c1nc(N)c(-c2ccccc2Oc2ccccc2)nn1CC(F)(F)F [CEN-98] is greater than or equal to 10%.
Fulfilled

====

# Target: DiHydroFolate Reductase (DHFR) (Rattus norvegicus)
# Construct: from tissue; host or cells: rat liver homogenate supernatant
# Assay name: Inhibition of binding of [3H]methotrexate to rat liver homogenate supernatant
# Setup conditions: 125 μM; read-out: [3H]mtx binding (% inhibition @ 125 μM)
As shown below, each of these compounds has a reported inhibition at 125 µM value.
Unit % implied. Number only.

In the examples that follow, each entry is paired with its recorded inhibition at 125 µM.
Which inhibition at 125 µM is reported for this compound? N=c1nc(N)c(-c2cccc(Cl)c2Cl)nn1CC(F)(F)F [CEN-67]
11

Which inhibition at 125 µM is reported for this compound? Nc1nnc(-c2ccc3ccccc3c2)c(N)n1 [CEN-73]
5

Which inhibition at 125 µM is reported for this compound? N=c1nc(N)c(-c2cc(Cl)cc(Cl)c2Cl)nn1CC(F)F [CEN-85]
-5

Which inhibition at 125 µM is reported for this compound? Cn1nc(-c2cccc3c2CCCC3)c(N)nc1=N [CEN-120]
18

Which inhibition at 125 µM is reported for this compound? Nc1nnc(-c2cccc(OCc3c(Cl)cccc3Cl)c2)c(N)n1 [CEN-185]
90

Which inhibition at 125 µM is reported for this compound? Nc1nnc(-c2cnc(Cl)c(Cl)c2)c(N)n1 [CEN-168]
95

Which inhibition at 125 µM is reported for this compound? CS(=O)(=O)c1ccc(-c2nnc(N)nc2N)c(Cl)c1 [CEN-179]
-1

Which inhibition at 125 µM is reported for this compound? Nc1nnc(-c2ccccc2OC(F)F)c(N)n1 [CEN-142]
12

Which inhibition at 125 µM is reported for this compound? Nc1nnc(-c2ccc(Cl)nc2Cl)c(N)n1 [CEN-174]
4

Which inhibition at 125 µM is reported for this compound? Cn1nc(-c2ccccc2OC(F)F)c(N)nc1=N [CEN-146]
3

Now for a further compound.
Which inhibition at 125 µM is reported for this compound? CC(C)OCCn1nc(-c2cccc(Cl)c2Cl)c(N)nc1=N [CEN-91]
94

====

# Target: DiHydroFolate Reductase (DHFR) (Rattus norvegicus)
# Construct: from tissue; host or cells: rat liver homogenate supernatant
# Assay name: Inhibition of binding of [3H]methotrexate to rat liver homogenate supernatant
# Setup conditions: 125 μM; read-out: [3H]mtx binding (% inhibition @ 125 μM)
Where a name gives a salt, the structure may show the parent alone.
Classify as follows. Reported inhibition at 125 µM greater than or equal to 50%: Condition met. Reported inhibition at 125 µM below: Condition not met.

Observe how each entry below is paired with its result.
Answer whether inhibition at 125 µM of Nc1nnc(-c2cc(F)c(Cl)nc2Cl)c(N)n1 is greater than or equal to 50%.
Condition not met

Answer whether inhibition at 125 µM of Cc1ccc(-c2nc(=N)n(C)nc2-c2ccc(C)cc2)cc1 [CEN-134, mesylate] is greater than or equal to 50%.
Condition not met

Answer whether inhibition at 125 µM of CCn1nc(-c2cccc(-c3ccccc3)c2)c(N)nc1=N is greater than or equal to 50%.
Condition met

Answer whether inhibition at 125 µM of Cn1nc(-c2cc(Cl)sc2Cl)c(N)nc1=N is greater than or equal to 50%.
Condition not met

Answer whether inhibition at 125 µM of CCCCc1ccc(-c2nnc(N)nc2N)cc1 is greater than or equal to 50%.
Condition met

Answer whether inhibition at 125 µM of Nc1nnc(-c2cccc(-c3ccccc3)c2)c(N)n1 is greater than or equal to 50%.
Condition met

Answer whether inhibition at 125 µM of Nc1nnc(-c2cc(Cl)cc(C(F)(F)F)c2)c(N)n1 is greater than or equal to 50%.
Condition met

Answer whether inhibition at 125 µM of Nc1nnc(-c2cccnc2Oc2ccccc2)c(N)n1 is greater than or equal to 50%.
Condition not met

Others:
Answer whether inhibition at 125 µM of Nc1nnc(-c2ccsc2)c(N)n1 is greater than or equal to 50%.
Condition met

Answer whether inhibition at 125 µM of COc1cc2ccccc2cc1-c1nnc(N)nc1N is greater than or equal to 50%.
Condition not met

====

# Target: DiHydroFolate Reductase (DHFR) (Rattus norvegicus, UniProt Q920D2)
# Construct: from tissue; host or cells: rat liver homogenate supernatant
# Sequence (Q920D2 whole entry): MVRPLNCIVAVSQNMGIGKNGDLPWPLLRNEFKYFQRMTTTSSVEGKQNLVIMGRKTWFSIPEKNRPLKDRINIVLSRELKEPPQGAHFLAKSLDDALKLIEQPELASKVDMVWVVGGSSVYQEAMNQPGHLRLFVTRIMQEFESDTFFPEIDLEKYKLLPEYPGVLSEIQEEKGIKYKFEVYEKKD
# Assay name: Inhibition of binding of [3H]methotrexate to rat liver homogenate supernatant
# Setup conditions: 125 μM; read-out: [3H]mtx binding (% inhibition @ 125 μM)
Endpoint: inhibition at 125 µM (%)
Unit % implied. Number only.

Which inhibition at 125 µM is reported for this compound? Nc1nnc(-c2ccc3c(c2)OC(F)(F)O3)c(N)n1
79

Which inhibition at 125 µM is reported for this compound? Nc1nnc(-c2ccc(Br)s2)c(N)n1
90

Which inhibition at 125 µM is reported for this compound? Cn1nc(-c2cccc(Oc3ccccc3)c2)c(N)nc1=N
43

Which inhibition at 125 µM is reported for this compound? CC(c1ccccc1)(c1ccccc1)c1nnc(N)nc1N
4

Which inhibition at 125 µM is reported for this compound? Cn1nc(-c2cccc(C(F)(F)F)c2Cl)c(N)nc1=N
16

Now for a further compound.
Which inhibition at 125 µM is reported for this compound? Nc1nnc(-c2ccc(-c3ccccc3)cc2)c(N)n1
-8

====

# Target: hERG (Homo sapiens, UniProt Q12809)
# Assay name: hERG: inhibition of binding of [3H]astemizole to HEK-293 cells expressing human recombinant hERG
# Setup conditions: human, probe [3H]astemizole
Endpoint: inhibition at 10 µM (%)
Unit % implied. Number only.

Which inhibition at 10 µM is reported for this compound? Cn1nc(-c2ccc3c(c2)OC(F)(F)O3)c(N)nc1=N
17

Which inhibition at 10 µM is reported for this compound? CCn1nc(-c2cccc3ccccc23)c(N)nc1=N
36

Which inhibition at 10 µM is reported for this compound? N=c1nc(N)c(-c2cccc(Cl)c2Cl)nn1CC(F)(F)F
15

Which inhibition at 10 µM is reported for this compound? N=c1nc(N)c(-c2cc(Cl)cc(Cl)c2Cl)nn1CC(F)F
39

Which inhibition at 10 µM is reported for this compound? Cn1nc(-c2cccc3ccccc23)c(N)nc1=N
24

Others:
Which inhibition at 10 µM is reported for this compound? COc1ccc(-c2nnc(N)nc2-c2ccc(OC)cc2)cc1
2

Which inhibition at 10 µM is reported for this compound? Nc1ncc(-c2cc(Cl)cc(Cl)c2Cl)c(N)n1 [CEN-47, reference compound]
22

Which inhibition at 10 µM is reported for this compound? CCOc1ccc2ccccc2c1-c1nnc(N)nc1N
-12

Which inhibition at 10 µM is reported for this compound? Cn1nc(-c2ccc3ccccc3c2)c(N)nc1=N
74

====

As shown below, each of these molecules has a reported inhibition at 10 µM value.
# Target: hERG (Homo sapiens, UniProt Q12809)
# Assay name: hERG: inhibition of binding of [3H]astemizole to HEK-293 cells expressing human recombinant hERG
# Setup conditions: human, probe [3H]astemizole
Unit % implied. Number only.

Which inhibition at 10 µM is reported for this molecule? Nc1nnc(-c2sc(Cl)c(Cl)c2Cl)c(N)n1 [CEN-79]
3

Others:
Which inhibition at 10 µM is reported for this molecule? Cn1nc(-c2cccc(-c3ccccc3)c2)c(N)nc1=N [CEN-161]
88

Which inhibition at 10 µM is reported for this molecule? Nc1cnc(-c2cccc(Cl)c2Cl)c(N)n1 [CEN-87]
3
